Where these numbers come from: patent US20230357233A1

- system: recombinant human KRAS^G12D protein (Homo sapiens, UniProt P01116, G12D)
- Sequence (P01116 1-188 isoform P01116-2 G12D): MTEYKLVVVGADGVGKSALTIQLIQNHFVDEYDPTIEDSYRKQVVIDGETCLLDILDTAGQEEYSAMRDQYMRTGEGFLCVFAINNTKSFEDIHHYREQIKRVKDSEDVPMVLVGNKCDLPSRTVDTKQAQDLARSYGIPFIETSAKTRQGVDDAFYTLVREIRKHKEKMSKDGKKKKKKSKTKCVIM
- test.method.notes: Temperature-dependent Fluorescence (TdF) KRAS^G12D protein binding assay
- conditions: 6 μM KRAS^G12D Protein, 10 μM compound, Sypro Orange; Kd calculated from fluorescent shift
pKd: −log10 of the molar value.
pKd: recorded values

- compound: "NC(=O)N1CCN(c2nc(OC[C@@]34CCCN3C[C@H](F)C4)nc3c(F)c(-c4cc(O)cc5cccc(Cl)c45)ncc23)CC1 [Compound 77]"
  pKd: "< 5.30"
- compound: "CCc1c(F)ccc2cc(O)cc(-c3nc(OC)c4c(N5CC6CCC(C5)N6)nc(OC[C@@]56CCCN5C[C@H](F)C6)nc4c3F)c12 [Compound 139]"
  pKd: "≥ 6.30"
- compound: "COc1cc(-c2cc3nc(OC[C@@H]4CCCN4C)nc(N4CC5CCC(C4)N5)c3nc2OC)c2ccccc2c1 [Compound 86]"
  pKd: "< 5.30"
- compound: "CCc1c(F)ccc2cc(O)cc(-c3nc(C(F)F)c4c(N5CC6CCC(C5)N6)nc(OC[C@@]56CCCN5C[C@H](F)C6)nc4c3F)c12 [Compound 166]"
  pKd: "≥ 6.30"
- compound: "Cc1nc(-c2cc(O)cc3cccc(CCC#N)c23)c(F)c2nc(OC[C@@]34CCCN3C[C@H](F)C4)nc(N3CC4CCC(C3)N4)c12 [Compound 119]"
  pKd: "5.30 to 6.30"
- compound: "C[C@H]1CNCCN1c1nc(OCCN(C)C)cc2nc(-c3ccccc3F)c(F)cc12 [Compound 13]"
  pKd: "< 5.30"
- compound: "CCc1cccc2cc(O)cc(-c3nc(OC)c4c(N5CC6CCC(C5)N6)nc(OC[C@@]56CCCN5C[C@H](F)C6)nc4c3F)c12 [Compound 125]"
  pKd: "≥ 6.30"
- compound: "CCc1cccc2cc(O)cc(-c3nc(Cl)c4c(N5CC6CCC(C5)N6)nc(OC[C@@]56CCCN5C[C@H](F)C6)nc4c3F)c12 [Compound 113]"
  pKd: "≥ 6.30"
- compound: "O=c1cc2c(N3CC4CCC(C3)N4)nc(OCC34CCCN3CCC4)nc2cn1-c1cc(O)cc2ccccc12 [Compound 109]"
  pKd: "< 5.30"
- compound: "C#Cc1c(F)ccc2cc(O)cc(-c3nc(OC)c4c(N5CC6CCC(C5)N6)nc(OC[C@]56CCCN5[C@@H](COC(=O)N(C)C)CC6)nc4c3F)c12 [Compound 176]"
  pKd: "≥ 6.30"
- compound: "Clc1cccc2cccc(-c3cc4nc(N5CCNCC5)ccc4c(OCC45CCCN4CCC5)n3)c12 [Compound 82]"
  pKd: "< 5.30"
- compound: "Oc1cc(-c2ncc3c(N4CC5CCC(C4)N5)cc(OC[C@@]45CCCN4C[C@H](F)C5)nc3c2F)c2c(Cl)cccc2c1 [Compound 78]"
  pKd: "≥ 6.30"
- compound: "Clc1cccc2cccc(-c3ncc4c(N5CCNCC5)nc(OCC56CCCN5CCC6)cc4n3)c12 [Compound 48]"
  pKd: "< 5.30"

###

- system: Ba/F3_KRAS^G12D cells (Homo sapiens, UniProt P01116, G12D, cells depend on it)
- Sequence (P01116 whole entry G12D): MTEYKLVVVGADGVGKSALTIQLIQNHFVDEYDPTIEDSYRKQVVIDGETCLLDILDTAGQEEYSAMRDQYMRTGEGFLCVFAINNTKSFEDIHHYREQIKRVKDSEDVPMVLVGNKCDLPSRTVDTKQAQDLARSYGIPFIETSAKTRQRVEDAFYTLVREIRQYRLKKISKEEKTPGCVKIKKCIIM
- test.method.notes: Ba/F3 KRAS^G12D cell proliferation assay (cell-titer Glo)
- Type: cell-based
- conditions: cell growth inhibition, treated with the compounds for 3 days, read-out: BaF3_KRAS^G12D IC50
measured.endpoint: GI50

- molecule: "C#Cc1c(F)ccc2cc(N)cc(-c3nc(OC(C)C)c4c(N5CC6CCC(C5)N6)nc(OC[C@@]56CCCN5C[C@H](F)C6)nc4c3F)c12 [Compound 200]"
  measured.endpoint: "GI50"
  measured.value: "< 500 nM"
- molecule: "CN1CCC[C@H]1COc1nc(N2CCNCC2)c2cnc(-c3ccc(F)c4sc(N)nc34)c(F)c2n1 [Compound 73]"
  measured.endpoint: "GI50"
  measured.value: "> 5000 nM"
- molecule: "Cc1cccc2cc(O)cc(-c3nc(C)c4c(N5CC6CCC(C5)N6)nc(OC[C@@]56CCCN5C[C@H](F)C6)nc4c3F)c12 [Compound 93]"
  measured.endpoint: "GI50"
  measured.value: "< 500 nM"
- molecule: "Oc1cc(-c2cc3nc(OC[C@@]45CCCN4C[C@H](F)C5)nc(N4CC5CCC(C4)N5)c3nn2)c2c(Cl)cccc2c1 [Compound 94]"
  measured.endpoint: "GI50"
  measured.value: "500 to 5000 nM"
- molecule: "CCc1cccc2cc(O)cc(-c3cc4nc(OC[C@@]56CCCN5C[C@H](F)C6)nc(N5CC6CCC(C5)N6)c4c(C)n3)c12 [Compound 121]"
  measured.endpoint: "GI50"
  measured.value: "500 to 5000 nM"
- molecule: "C#Cc1c(F)ccc2cc(O)cc(-c3nc(C)c4c(N5CC6CCC(C5)N6)nc(OC[C@@]56CCCN5C[C@H](F)C6)nc4c3Cl)c12 [Compound 134]"
  measured.endpoint: "GI50"
  measured.value: "< 500 nM"
- molecule: "C#Cc1c(F)ccc2cccc(-c3nc(OC(C)C)c4c(N5CC6CCC(C5)N6)nc(OC[C@@H]5C[C@@H](OC(=O)N(C)CCCCCCCCCCCCCCCC)CN5C)nc4c3F)c12 [Compound 246]"
  measured.endpoint: "GI50"
  measured.value: "500 to 5000 nM"
- molecule: "C#Cc1c(F)ccc2cc(O)cc(-c3nc(OC(C)C)c4c(N5CC6CCC(C5)N6)ncnc4c3F)c12 [Compound 150]"
  measured.endpoint: "GI50"
  measured.value: "< 500 nM"
- molecule: "Oc1cc(-c2ncc3c(N4CC5CCC(C4)N5)cc(OCC45CCCN4CCC5)nc3c2F)c2c(Cl)cccc2c1 [Compound 71]"
  measured.endpoint: "GI50"
  measured.value: "> 5000 nM"
- molecule: "Oc1cc(-c2ncc3c(N4CC5CCC(C4)N5)nc(OCC45CCCN4CCC5)nc3c2F)c2ccccc2c1 [Compound 12]"
  measured.endpoint: "GI50"
  measured.value: "500 to 5000 nM"
- molecule: "Cc1nc(-c2ccc(F)c3sc(N)nc23)c(F)c2nc(OC[C@@]34CCCN3C[C@H](F)C4)nc(N3CC4CCC(C3)N4)c12 [Compound 87]"
  measured.endpoint: "GI50"
  measured.value: "> 5000 nM"
- molecule: "C#Cc1c(F)ccc2cc(O)cc(-c3nc(OC(C)C)c4c(N5CCNC6(CC6)C5)nc(OC[C@@]56CCCN5C[C@H](F)C6)nc4c3F)c12 [Compound 241]"
  measured.endpoint: "GI50"
  measured.value: "< 500 nM"
- molecule: "Oc1cc(-c2cc3nc(N4CC5CCC(C4)N5)ccc3c(OC[C@@]34CCCN3C[C@H](F)C4)n2)c2ccccc2c1 [Compound 104]"
  measured.endpoint: "GI50"
  measured.value: "> 5000 nM"

###

- system: Ba/F3_KRAS^G12D cells (Homo sapiens, UniProt P01116, G12D, cells depend on it)
- test.method.notes: Ba/F3 KRAS^G12D cell proliferation assay (cell-titer Glo)
- Assay type: cell-based
- conditions: cell growth inhibition, treated with the compounds for 3 days, read-out: BaF3_KRAS^G12D IC50
GI50: recorded values

- molecule: "Oc1cc(-c2nc(Cl)c3c(N4CC5CCC(C4)N5)nc(OC[C@@]45CCCN4C[C@H](F)C5)nc3c2F)c2c(Cl)cccc2c1 [Compound 114]"
  GI50: "< 500 nM"
- molecule: "CCc1c(F)ccc2cc(O)cc(-c3ncc4c(N5CC6CCC(C5)N6)nc(OC[C@@]56CCCN5C[C@H](F)C6)nc4c3F)c12 [Compound 140]"
  GI50: "< 500 nM"
- molecule: "Cc1nc(-c2cc(O)cc3cccc(Cl)c23)c(Cl)c2nc(OC[C@@]34CCCN3C[C@H](F)C4)nc(N3CC4CCC(C3)N4)c12 [Compound 130]"
  GI50: "< 500 nM"
- molecule: "C#Cc1c(F)ccc2cc(O)cc(-c3nc(OC(C)C)c4c(N5CC6CCC(C5)N6)nc(OC[C@]56CCCN5[C@H](COC(=O)N(C)C)CC6)nc4c3F)c12 [Compound 226]"
  GI50: "< 500 nM"
- molecule: "CCc1cccc2cc(O)cc(-c3nc(C)c4c(N5CC6CCC(C5)N6)nc(OC[C@@]56CCCN5C[C@H](F)C6)nc4c3F)c12 [Compound 85]"
  GI50: "< 500 nM"
- molecule: "c1ccc2c(-c3ncc4c(N5CC6CCC(C5)N6)cc(OCC56CCCN5CCC6)nc4n3)cccc2c1 [Compound 66]"
  GI50: "500 to 5000 nM"
- molecule: "C#Cc1c(F)ccc2cc(N)cc(-c3nc(OC)c4c(N5CC6CCC(C5)N6)nc(OC[C@@]56CCCN5C[C@H](F)C6)nc4c3F)c12 [Compound 163]"
  GI50: "< 500 nM"
- molecule: "C#Cc1c(F)ccc2cc(O)cc(-c3c(F)c4nc(OC[C@@]56CCCN5C[C@H](F)C6)nc(N5CC6CCC(C5)N6)c4c4ncnn34)c12 (single isomer, unassigned) [Compound 156]"
  GI50: "< 500 nM"
- molecule: "C#Cc1c(F)ccc2cc(O)cc(-c3nc(OC)c4c(N5CC6CCC(C5)N6)nc(OC[C@]56CCCN5[C@@H](COC(=O)N(C)C)CC6)nc4c3F)c12 [Compound 176]"
  GI50: "< 500 nM"
- molecule: "Fc1c(-c2cccc3cccc(Cl)c23)ncc2c(N3CC4CCC(C3)N4)nc(OC[C@@]34CCCN3C[C@H](F)C4)nc12 [Compound 30]"
  GI50: "< 500 nM"
- molecule: "COc1cc(-c2cc3nc(OC[C@@H]4CCCN4C)nc(N4CC5CCC(C4)N5)c3nc2OC)c2ccccc2c1 [Compound 86]"
  GI50: "500 to 5000 nM"
- molecule: "C#Cc1c(F)ccc2cc(O)cc(-c3nc(OC(C)C)c4c(N5CC6CCC(C5)N6)nc(OC[C@@]56CCCN5C[C@H](F)C6)nc4c3F)c12 [Compound 171]"
  GI50: "< 500 nM"
- molecule: "C#Cc1c(F)ccc2cc(O)cc(-c3nc(O)c4c(N5CC6CCC(C5)N6)nc(OC[C@]56CCCN5[C@@H](COC(=O)N(C)C)CC6)nc4c3F)c12 [Compound 239]"
  GI50: "500 to 5000 nM"
- molecule: "CCc1c(F)ccc2cc(O)cc(-c3nc(OC)c4c(N5CC6CCC(C5)N6)nc(OC[C@@]56CCCN5C[C@H](F)C6)nc4c3F)c12 [Compound 139]"
  GI50: "< 500 nM"
- molecule: "C#Cc1c(F)ccc2cc(O)cc(-c3nc(OC(C)C)c4c(N5CC6CCC(C5)N6)nc(NC)nc4c3F)c12 [Compound 186]"
  GI50: "500 to 5000 nM"
- molecule: "Nc1nc2c(-c3ncc4c(N5CC6CCC(C5)N6)nc(OC[C@@]56CCCN5C[C@H](F)C6)nc4c3F)ccc(F)c2s1 [Compound 68]"
  GI50: "> 5000 nM"
- molecule: "C#Cc1c(F)ccc2cc(O)cc(-c3nc(OC)c4c(N5CC6CCC(C5)N6)ncnc4c3F)c12 [Compound 161]"
  GI50: "< 500 nM"
- molecule: "CCc1c(F)ccc2cc(O)cc(-c3nc(C(F)F)c4c(N5CC6CCC(C5)N6)nc(OC[C@@]56CCCN5C[C@H](F)C6)nc4c3F)c12 [Compound 166]"
  GI50: "< 500 nM"
- molecule: "CN1CCC[C@H]1COc1nc(N2CC3CCC(C2)N3)c2[nH]c(=O)c(-c3cc(O)cc4ccccc34)cc2n1 [Compound 92]"
  GI50: "> 5000 nM"
- molecule: "C#Cc1c(F)ccc2cc(O)cc(-c3nc(O)c4c(N5CC6CCC(C5)N6)nc(NC)nc4c3F)c12 [Compound 187]"
  GI50: "500 to 5000 nM"
- molecule: "CN1CCC[C@H]1Cn1c(=O)nc(N2CC3CCC(C2)N3)c2cnc(-c3cccc4cccc(Cl)c34)c(F)c21 [Compound 33]"
  GI50: "> 5000 nM"
- molecule: "Oc1cc(-c2ncc3c(N4CCNCC4)nc(OC[C@@]45CCCN4C[C@H](F)C5)nc3c2F)c2c(Cl)cccc2c1 [Compound 72]"
  GI50: "500 to 5000 nM"
- molecule: "Oc1cc(-c2ncc3c(N4CC5CCC(C4)N5)cc(OC[C@@]45CCCN4C[C@H](F)C5)nc3c2F)c2ccccc2c1 [Compound 80]"
  GI50: "500 to 5000 nM"
- molecule: "Cc1nc(-c2cc(O)cc3ccc(F)c(Cl)c23)c(F)c2nc(OC[C@@]34CCCN3C[C@H](F)C4)nc(N3CC4CCC(C3)N4)c12 [Compound 126]"
  GI50: "< 500 nM"
- molecule: "C#Cc1c(F)ccc2cc(O)cc(-c3nc(O)c4c(N5CC6CCC(C5)N6)nc(C(F)F)nc4c3F)c12 [Compound 211]"
  GI50: "500 to 5000 nM"
